The measurements presented in this section are drawn from patent US20260242478A1.

- testSystem: Anti-CD28 Fab (SEQ ID NOs: 696, 697) (biotinylated (site not stated))
- Sequence (VH, as listed by the source, chain 1 of 2): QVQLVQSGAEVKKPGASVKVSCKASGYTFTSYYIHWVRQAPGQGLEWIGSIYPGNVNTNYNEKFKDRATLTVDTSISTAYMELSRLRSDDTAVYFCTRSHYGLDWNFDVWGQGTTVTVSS
- Sequence (VL, as listed by the source, chain 2 of 2): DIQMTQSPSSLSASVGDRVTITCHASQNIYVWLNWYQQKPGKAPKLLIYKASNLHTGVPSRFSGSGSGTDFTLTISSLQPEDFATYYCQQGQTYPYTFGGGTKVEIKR
- assayProcedure: phage binding ELISA; Fab-coated wells pre-incubated with CD28 antigen as competitor, then clonal phage, anti-M13 HRP detection
Note to self: use Criterion met only for Anti-CD28 Fab signal in the presence of CD28 (phage binding ELISA) readings below 0.07; a reading exactly at 0.07 still gets Criterion not met.

YCEGHSPQYMQKCL (tested as crude phage supernatant) [Phage-652]	Criterion met
YCDGHAPQYMLKCL (tested as crude phage supernatant) [Phage-644]	Criterion not met

[Q] Would you kindly verify if Anti-CD28 Fab signal in the presence of CD28 (phage binding ELISA) of YCAGHTQEYMSKCL (tested as crude phage supernatant) [Phage-651] is strictly less than 0.07?
[A] Criterion met

[Q] Would you kindly verify if Anti-CD28 Fab signal in the presence of CD28 (phage binding ELISA) of YCDGHLPVYMAKCL (tested as crude phage supernatant) [Phage-645] is strictly less than 0.07?
[A] Criterion not met

[Q] Would you kindly verify if Anti-CD28 Fab signal in the presence of CD28 (phage binding ELISA) of YCQGHLPQYIAKCL (tested as crude phage supernatant) [Phage-655] is strictly less than 0.07?
[A] Criterion not met

[Q] Would you kindly verify if Anti-CD28 Fab signal in the presence of CD28 (phage binding ELISA) of YCDGHSAEYMSKCL (tested as crude phage supernatant) [Phage-654] is strictly less than 0.07?
[A] Criterion met
